method: Stability of (7aS,2′S)-2-oxo-clopidogrel in plasma, screening of TCEP dosage (Example 4)
Format: in vitro ADME
settings: plasma, TCEP 100 mg/ml; theoretical 0.1 ng/mL; on ice; 120 min; read-out: Recovery rate
recorded metric: recovery at 120 min, 0.1 ng/mL (%)
# value in %; strip the unit string

q: Reported recovery at 120 min, 0.1 ng/mL for COC(=O)[C@H](c1ccccc1Cl)N1CC[C@@H]2SC(=O)C=C2C1 : what is it?
a: 95.1

* * *

method: Stability of (7aS,2′S)-2-oxo-clopidogrel in plasma containing the reducing agent (Example 8)
Type: in vitro ADME, human
settings: human, plasma containing the reducing agent (TCEP); plasma with reducing agent; placing below −60° C. for 36 days; theoretical 0.1 ng/mL; read-out: Recovery rate
recorded metric: recovery at 36 days, 0.1 ng/mL (%)
# value in %; strip the unit string

q: Reported recovery at 36 days, 0.1 ng/mL for COC(=O)[C@H](c1ccccc1Cl)N1CC[C@@H]2SC(=O)C=C2C1 : what is it?
a: 96.4

Values compiled from patent US20260140098A1.
